- Species on record: Rattus norvegicus
- ASSAY_PROTOCOL: Open TG-GATES - Regimen: Daily Repeat
- Type: toxicity, organism-based, Sprague-Dawley
- Set-up: regimen Daily Repeat, gender Male, age 6 weeks
- MEASUREMENT_CONDITIONS: in vivo, po, 1000 mg/kg, […], tissue Plasma, route gavage, dose level High, time 28 day
RECORDED_METRIC: GLC (mg/dL)
The reply should contain only the number, in mg/dL.

Here is how some compounds turned out for GLC.
# COMPOUND, GLC (mg/dL)
measured = [
    ("NC(N)=Nc1nc(CSCCC(N)=NS(N)(=O)=O)cs1 [FAMOTIDINE]", 220),
    ("COc1ccc2[nH]c([S+]([O-])Cc3ncc(C)c(OC)c3C)nc2c1 (stereo not drawn) [OMEPRAZOLE]", 190.8),
]

Moving on to another compound below.
Value of GLC reported for the compound CC(C)OC(=O)C(C)(C)Oc1ccc(C(=O)c2ccc(Cl)cc2)cc1 [FENOFIBRATE] is 176
